For each entry below, report its IC50 value.
System: Trypanosoma brucei
method_notes: microbe, parasite or virus in culture
Format: functional, organism-based
Provide only the numeric value, understood in µM.

# IC50 lookup, item CCCN(CCC)c1c([N+](=O)[O-])cc(S(=O)(=O)Nc2cccc(Cl)c2)cc1[N+](=O)[O-]
2.1

# IC50 lookup, item CCCN(CCC)c1c([N+](=O)[O-])cc(S(=O)(=O)Nc2cc(Cl)cc(Cl)c2)cc1[N+](=O)[O-]
8

# IC50 lookup, item CCCN(CCC)c1c([N+](=O)[O-])cc(S(=O)(=O)Nc2cccc(C)c2)cc1[N+](=O)[O-]
1.9

# IC50 lookup, item CCCN(CCC)c1c([N+](=O)[O-])cc(S(=O)(=O)N(C)c2ccccc2)cc1[N+](=O)[O-]
1

# IC50 lookup, item CCCN(CCC)c1c([N+](=O)[O-])cc(S(=O)(=O)N(CC)CC)cc1[N+](=O)[O-]
8.3

# IC50 lookup, item CCCN(CCC)c1c([N+](=O)[O-])cc(S(=O)(=O)NC2CCCC2)cc1[N+](=O)[O-]
11

# IC50 lookup, item CCCN(CCC)c1c([N+](=O)[O-])cc(S(=O)(=O)N(CCC)CCC)cc1[N+](=O)[O-]
17

# IC50 lookup, item CCCN(CCC)c1c([N+](=O)[O-])cc(S(=O)(=O)NC2CC2)cc1[N+](=O)[O-]
3.4

# IC50 lookup, item CCCCN(CCCC)c1c([N+](=O)[O-])cc(S(=O)(=O)Nc2ccccc2)cc1[N+](=O)[O-]
0.12

# IC50 lookup, item CCCNS(=O)(=O)c1cc([N+](=O)[O-])c(N(CCC)CCC)c([N+](=O)[O-])c1
8.9

# IC50 lookup, item CCCN(CCC)c1c([N+](=O)[O-])cc(S(=O)(=O)Nc2ccc(Cl)c(Cl)c2)cc1[N+](=O)[O-]
7.9

# IC50 lookup, item CCCCCNS(=O)(=O)c1cc([N+](=O)[O-])c(N(CCC)CCC)c([N+](=O)[O-])c1
17

# IC50 lookup, item CCCN(CCC)c1c([N+](=O)[O-])cc(S(=O)(=O)NC)cc1[N+](=O)[O-]
5.3

# IC50 lookup, item CCCN(CCC)c1c([N+](=O)[O-])cc(S(=O)(=O)Nc2ccc(Cl)cc2)cc1[N+](=O)[O-]
13

# IC50 lookup, item CCCN(CCC)c1c([N+](=O)[O-])cc(S(N)(=O)=O)cc1[N+](=O)[O-] [ORYZALIN]
12

# IC50 lookup, item CCCN(CCC)c1c([N+](=O)[O-])cc(S(=O)(=O)Nc2ccccc2)cc1[N+](=O)[O-]
0.41

# IC50 lookup, item CCCN(CCC)c1c([N+](=O)[O-])cc(S(=O)(=O)N(c2ccccc2)c2ccccc2)cc1[N+](=O)[O-]
7

# IC50 lookup, item CCCN(CCC)c1c([N+](=O)[O-])cc(S(=O)(=O)N(C)C)cc1[N+](=O)[O-]
5.8

# IC50 lookup, item CCCN(CCC)c1c([N+](=O)[O-])cc(S(=O)(=O)Nc2ccc(C)cc2)cc1[N+](=O)[O-]
13

# IC50 lookup, item CCCN(CCC)c1c([N+](=O)[O-])cc(S(=O)(=O)N2CCCC2)cc1[N+](=O)[O-]
6.5

# IC50 lookup, item CCCN(CCC)c1c([N+](=O)[O-])cc(S(=O)(=O)NC(C)C)cc1[N+](=O)[O-]
4.1

# IC50 lookup, item CCCN(CCC)c1c([N+](=O)[O-])cc(S(=O)(=O)Nc2ccc(OC)cc2)cc1[N+](=O)[O-]
19

# IC50 lookup, item CCCN(CCC)c1c([N+](=O)[O-])cc(S(=O)(=O)NCC)cc1[N+](=O)[O-]
5.4

# IC50 lookup, item CCCN(CCC)c1c([N+](=O)[O-])cc(S(=O)(=O)Nc2ccccn2)cc1[N+](=O)[O-]
9.2

# IC50 lookup, item N=C(N)c1ccc(OCCCCCOc2ccc(C(=N)N)cc2)cc1 [PENTAMIDINE]
0.013

# IC50 lookup, item CCCCCCNS(=O)(=O)c1cc([N+](=O)[O-])c(N(CCC)CCC)c([N+](=O)[O-])c1
15

# IC50 lookup, item CCN(CC)c1c([N+](=O)[O-])cc(S(=O)(=O)Nc2ccccc2)cc1[N+](=O)[O-]
2.8

# IC50 lookup, item CCCCN(CCCC)S(=O)(=O)c1cc([N+](=O)[O-])c(N(CCC)CCC)c([N+](=O)[O-])c1
38

# IC50 lookup, item Cc1ccc(C(=O)Nc2ccc(S(=O)(=O)O)c3cc(S(=O)(=O)O)cc(S(=O)(=O)O)c23)cc1NC(=O)c1cccc(NC(=O)Nc2cccc(C(=O)Nc3cc(C(=O)Nc4ccc(S(=O)(=O)O)c5cc(S(=O)(=O)O)cc(S(=O)(=O)O)c45)ccc3C)c2)c1 [SURAMIN]
0.21

# IC50 lookup, item CCCCNS(=O)(=O)c1cc([N+](=O)[O-])c(N(CCC)CCC)c([N+](=O)[O-])c1
12

# IC50 lookup, item CCCN(CCC)c1c([N+](=O)[O-])cc(S(=O)(=O)Nc2cccc(OC)c2)cc1[N+](=O)[O-]
1.3
